# experimentalProtocol: Food intake test in food-deprived rats (anorectic activity)
# Assay type: in vivo, Male Sprague-Dawley derived rats
# experimentalSetup: rat, 32.0 mg/kg i.g., 24 h food-deprived, food given 30 min after dosing, 6 hour intake
# Procedure: Male Sprague-Dawley derived rats, Charles River Breeders (Portage, MI), weighing between 200-400 grams at the time of testing, were employed in the food intake studies and water intake studies. The rats were housed individually and kept on a 12 hour light-dark-light cycle. The room temperature ranged between 23°-25° C. […]
Below, each entry is listed with its recorded Food Intake, % of control, 6 Hr..

{"columns": ["compound", "endpointResult"],
 "data": [
  ["CCN(CC)CCOCc1cnc2c3ccccc3ccn2c1=O.Cl.Cl [Example 4]", "90.9 % of control"],
  ["CC(=O)OCc1cnc2c3ccccc3ccn2c1=O [Example 2, acetate]", "89.8 % of control"],
  ["O=c1c(CO)cnc2c3ccccc3ccn12 [Example 1]", "90.4 % of control"],
  ["Cl.Cl.NCc1cnc2c3ccccc3ccn2c1=O [Example 3]", "92.3 % of control"]
]}

QUERY: Which Food Intake, % of control, 6 Hr. value belongs to CN(C)CCNC(=O)c1cnc2c3ccccc3ccn2c1=O [Example 5] ?
RESULT: 88.3 % of control
